Target: T1, human Nectin-4 extracellular antigen hNectin-4-His (human, UniProt Q96NY8 32-349)
T1 construct: C-terminal 8xHis tag included
T1 sequence: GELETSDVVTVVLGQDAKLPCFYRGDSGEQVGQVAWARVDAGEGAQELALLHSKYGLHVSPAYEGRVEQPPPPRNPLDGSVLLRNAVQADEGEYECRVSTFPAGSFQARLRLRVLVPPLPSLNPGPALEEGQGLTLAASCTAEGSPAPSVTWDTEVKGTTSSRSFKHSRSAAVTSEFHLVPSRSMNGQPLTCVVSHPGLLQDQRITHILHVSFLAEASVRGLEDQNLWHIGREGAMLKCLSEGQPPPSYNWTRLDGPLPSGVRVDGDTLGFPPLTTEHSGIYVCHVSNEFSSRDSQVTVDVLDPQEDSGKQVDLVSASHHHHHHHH
Experiment: ELISA, phage scFv supernatant 1:50
The following binders are shown together with reported OD value values.
API: value field is a number in OD; no unit string.

1G8-1G9 scFv (scFv, V domains shown, phage clone supernatant) VH: EVQLVESGGGLVQPGGSLRLSCAASGFNFGDFAMSWVRQAPGKGLEWVSRIYSGDDNASYADSVKGRFTISRDNSKNTLYLQMNSLRAEDTAVYYCARQTEDRSYGYDLDYWGQGTLVTVSS VL: DIQMTQSPSSLSASVGDRVTITCRASQGISSYLAWYQQKPGKAPKLLIYAASSLQSGVPSRFSGSGSGTDFTLTISSLQPEDFATYYCQQHYTTPPTFGQGTKVEIKR	1.55

# context switch: different binder, same OD value
[in] Look up and state reported OD value for 10F4-2E1 scFv (scFv, V domains shown, phage clone supernatant) VH: EVQLVESGGGLVQPGGSLRLSCAASGFTFTTYDMSWVRQAPGKGLEWVSGIKYSKYYTHYADSVKGRFTISRDNSKNTLYLQMNSLRAEDTAVYYCAREYSDVVDYVSVRTPLDYWGQGTLVTVSS VL: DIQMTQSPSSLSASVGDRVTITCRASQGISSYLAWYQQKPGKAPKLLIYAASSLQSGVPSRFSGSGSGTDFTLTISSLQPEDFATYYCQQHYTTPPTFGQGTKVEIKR
[out] 1.6
